The following compounds are shown together with reported Log P values.
Assay: Measurement of logP values by HPLC on reversed phase columns (EEC directive 79/831 Annex V.A8)
Assay type: physicochemical
Details: pH 2.7, 0.1% formic acid in water / acetonitrile gradient, calibration with alkan-2-ones
Respond numerically, and do not add a unit to the figure.

CC(C)CCOC(C)C(=O)Nc1cccc(CON=C(c2ccccc2)c2nnnn2C)n1 (centres unmarked): 4.41
Cc1nnnn1C(=NOCc1csc(NC(=O)COCC2CCC2)n1)c1ccccc1: 3.59
Cn1nnnc1C(=NOCc1cccc(NC(=O)COCC2CC2)n1)c1ccccc1: 3.29
Cc1nnnn1C(=NOCc1cccc(NC(=O)COCC2CCCO2)n1)c1ccccc1 (centres unmarked): 2.98

Next compound, please.
Ask: Would you kindly share the measured Log P for Cn1nnnc1C(=NOCc1csc(NC(=O)COCC2CCCCC2)n1)c1ccccc1 ?
Reply: 4.29
